// pEC50 lookup, one value per entry
Molecular target: hGcgR (Homo sapiens, UniProt P47871)
Sequence (P47871 26-477): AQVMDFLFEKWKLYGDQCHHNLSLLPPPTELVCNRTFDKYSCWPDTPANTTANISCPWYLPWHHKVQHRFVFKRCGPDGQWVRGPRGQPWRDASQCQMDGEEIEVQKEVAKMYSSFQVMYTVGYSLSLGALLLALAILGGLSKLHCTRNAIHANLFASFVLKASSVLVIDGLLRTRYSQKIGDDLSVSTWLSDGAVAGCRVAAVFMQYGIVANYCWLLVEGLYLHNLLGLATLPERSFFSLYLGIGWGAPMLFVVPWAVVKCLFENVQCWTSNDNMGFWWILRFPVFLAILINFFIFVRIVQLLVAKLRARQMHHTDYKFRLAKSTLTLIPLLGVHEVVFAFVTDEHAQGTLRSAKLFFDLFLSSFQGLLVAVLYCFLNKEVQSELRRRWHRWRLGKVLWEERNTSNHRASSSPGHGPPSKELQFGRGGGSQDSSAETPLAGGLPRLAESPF
Experiment: Functional cAMP activation in the presence of 0.1% casein (no HSA);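 note: intracellular cAMP rise after 30 min at 37 °C, read by HTRF against a cAMP standard curve, scaled from buffer only (0%) to maximal control ligand response (100%)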
Assay type: cell-based
Details: in the presence of 0.1% casein (no HSA); geometric mean; read-out: Relative cAMP EC50, hGcgR
pEC50: −log10 of the molar value. Starred links: 1 amine or outer side, 2 acyl side, 3 side chain; linkers in the order of their positions; H or OH if unused. Non-standard residues stand in square brackets, D forms with d. Groups on a side chain read outwards from the residue. *: point of attachment. C18 diacid = O=C(O)CCCCCCCCCCCCCCCCC(=O)*; γGlu = O=C(O)[C@H](CCC(=O)[*:2])N[*:1]; αMe4Pal = C[C@](N)(Cc1ccncc1)C(=O)O; αMeY = C[C@](N)(Cc1ccc(O)cc1)C(=O)O; αMeF = C[C@](N)(Cc1ccccc1)C(=O)O; 4Pal = N[C@@H](Cc1ccncc1)C(=O)O; αMeL = CC(C)C[C@](C)(N)C(=O)O; Orn = NCCC[C@H](N)C(=O)O; AEEA = NCCOCCOCC(=O)O; Aib = CC(C)(N)C(=O)O

| substance | targetDesc | pEC50 |
| --- | --- | --- |
| H-Y[Aib]QGTFTSDFSK[αMeL]LDKK([AEEA-γGlu-C18 diacid])AQ[Aib]AFIEYLIE[Aib]GESSGAPPPSGE-NH2 [Example 217] | hGcgR (Homo sapiens, UniProt P47871) | 8.29 |
| H-Y[Aib]QGTFTSD[4Pal]SQ[αMeL]LD[Orn]K([dE-γGlu-C18 diacid])AQ[αMe4Pal]AFIE[αMeY]LIE[Aib]GPSSGEPPPSGSEE-NH2 [Example 1103] | hGcgR (Homo sapiens, UniProt P47871) | 7.95 |
| H-Y[Aib]QGTFTSDFS[Orn][αMeL]LDKK([AEEA-AEEA-γGlu-C18 diacid])AQ[Aib]AFIEYLLE[Aib]GPSSGAPPPSGS-NH2 [Example 75] | hGcgR (Homo sapiens, UniProt P47871) | 8.35 |
| H-Y[Aib]QGTFTSDYS[Orn][αMeL]LDKK([AEEA-γGlu-C18 diacid])AQ[Aib]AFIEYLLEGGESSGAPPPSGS-NH2 [Example 359] | hGcgR (Homo sapiens, UniProt P47871) | 8.68 |
| H-Y[Aib]QGTFTSD[4Pal]SQ[αMeL]LD[Orn]K([dE-γGlu-C18 diacid])AQ[αMe4Pal]QFIQ[αMeY]LIE[Aib]GPSSGEPPPSGGGE-NH2 [Example 1129] | hGcgR (Homo sapiens, UniProt P47871) | 8.21 |
| H-Y[Aib]QGTFTSD[4Pal]SQ[αMeL]LD[Orn]K([AEEA-γGlu-C18 diacid])AQ[αMe4Pal]QFIE[αMeY]LIA[Aib]GPSSGEPPPSGSEE-NH2 [Example 1100] | hGcgR (Homo sapiens, UniProt P47871) | 8.28 |
| H-Y[Aib]QGTFTSDFS[Orn][αMeL]LDKK([AEEA-γGlu-C18 diacid])AQ[Aib]AFIEYLLE[Aib]G[4Pal]SSGAPPPSGS-NH2 [Example 242] | hGcgR (Homo sapiens, UniProt P47871) | 8.46 |
| H-Y[Aib]QGTFTSD[4Pal]SK[αMeL]LDKK([AEEA-γGlu-C18 diacid])AQ[Aib]AFIEYLIA[Aib]GESSGEPPPSGS-NH2 [Example 287] | hGcgR (Homo sapiens, UniProt P47871) | 8.60 |
| H-Y[Aib]QGTFTSD[4Pal]SQ[αMeL]LDKK([Glu-γGlu-C18 diacid])AQ[αMe4Pal]AFIEYLIE[Aib]GPSSGAPPPSGS-NH2 [Example 894] | hGcgR (Homo sapiens, UniProt P47871) | 8.22 |
| H-Y[Aib]QGTFTSD[4Pal]SK[αMeL]LDKK([γGlu-γGlu-C18 diacid])AQ[Aib]AFIEYLIE[Aib]GPSSGAPPPSGSEEE-NH2 [Example 906] | hGcgR (Homo sapiens, UniProt P47871) | 7.83 |
| H-Y[Aib]QGTFTSD[4Pal]S[Orn][αMeL]LDKK([AEEA-γGlu-C18 diacid])AQ[Aib]AFIE[αMeY]LIEGGPSSGAPPPSGS-NH2 [Example 836] | hGcgR (Homo sapiens, UniProt P47871) | 7.77 |
| H-Y[Aib]QGT[αMeF]TSDYSILLDKIAAK([AEEA-AEEA-γGlu-C18 diacid])NFIEYLVEGGPSSGEPPPSEG-NH2 [Example 307] | hGcgR (Homo sapiens, UniProt P47871) | 8.77 |

----------
// pEC50 lookup, one value per entry
Target: hGLP-1R (Homo sapiens)
Sequence (P43220 24-463): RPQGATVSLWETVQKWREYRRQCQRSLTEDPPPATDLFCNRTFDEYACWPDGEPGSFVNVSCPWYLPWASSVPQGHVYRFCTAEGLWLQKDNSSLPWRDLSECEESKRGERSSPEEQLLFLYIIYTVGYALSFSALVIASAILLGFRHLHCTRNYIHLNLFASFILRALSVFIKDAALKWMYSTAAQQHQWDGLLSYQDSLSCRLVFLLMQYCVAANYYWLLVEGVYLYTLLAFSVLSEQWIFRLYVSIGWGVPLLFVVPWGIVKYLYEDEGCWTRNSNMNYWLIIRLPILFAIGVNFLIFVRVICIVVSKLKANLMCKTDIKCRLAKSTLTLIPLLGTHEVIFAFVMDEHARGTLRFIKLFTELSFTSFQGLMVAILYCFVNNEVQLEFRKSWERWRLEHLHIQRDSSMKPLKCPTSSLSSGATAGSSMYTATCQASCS
Experiment: Functional cAMP activity in the presence of 1% HSA
Type: cell-based
Conditions: read-out: cAMP Rel EC50, hGLP-1R
pEC50: −log10 of the molar value. Starred links: 1 amine or outer side, 2 acyl side, 3 side chain; linkers in the order of their positions; H or OH if unused. Non-standard residues stand in square brackets, D forms with d. Groups on a side chain read outwards from the residue. No end group written: not given here. *: point of attachment. C20 diacid = O=C(O)CCCCCCCCCCCCCCCCCCC(=O)*; C18 diacid = O=C(O)CCCCCCCCCCCCCCCCC(=O)*; αMePhe(2-F) = C[C@](N)(Cc1ccccc1F)C(=O)O; γGlu = O=C(O)[C@H](CCC(=O)[*:2])N[*:1]; αMe4Pal = C[C@](N)(Cc1ccncc1)C(=O)O; αMeY = C[C@](N)(Cc1ccc(O)cc1)C(=O)O; 4Pal = N[C@@H](Cc1ccncc1)C(=O)O; αMeL = CC(C)C[C@](C)(N)C(=O)O; Orn = NCCC[C@H](N)C(=O)O; AEEA = NCCOCCOCC(=O)O; Aib = CC(C)(N)C(=O)O

| substance | pEC50 |
| --- | --- |
| H-Y[Aib]QGTFTSDFS[Orn][αMeL]LDKK([AEEA-AEEA-γGlu-C18 diacid])AQ[Aib]AFIEYLLE[Aib]GPSSGAPPPEGS-NH2 [Example 194] | 6.16 |
| H-Y[Aib]QGTFTSD[4Pal]SK[αMeL]LDKK([AEEA-γGlu-C18 diacid])AQ[αMe4Pal]AFIEYLIE[Aib]GPSSGAPPPSGS-NH2 [Example 915] | 6.65 |
| Y[Aib]QGT[αMePhe(2-F)]TSD[4Pal]SI[αMeL]LD[Orn]QAQ[αMe4Pal][Orn]FI[dE][αMeY]LIEGGPSSGEPPPETE-NH2 [Example 1230] | 8.94 |
| H-Y[Aib]QGTFTSD[4Pal]SQ[αMeL]LD[Orn]K([dE-γGlu-C18 diacid])AQ[αMe4Pal]QFIQ[αMeY]LIE[Aib]GPSSGEPPPSGGGE-NH2 [Example 1129] | 7.25 |
| H-Y[Aib]QGT[αMePhe(2-F)]TSDYSKLLDKIAQK([AEEA-γGlu-C20 diacid])AFIEYLIEGGPSSGAPPPSGE-NH2 [Example 356] | 6.69 |
| H-Y[Aib]QGTFTSDFS[Orn][αMeL]LDKK([AEEA-γGlu-C18 diacid])AQ[Aib]AFIEWLLEGGSSSGAPPPSGH-NH2 [Example 270] | 6.18 |

----------
Target: hGIPR (Homo sapiens, UniProt P48546)
Sequence (P48546 22-466): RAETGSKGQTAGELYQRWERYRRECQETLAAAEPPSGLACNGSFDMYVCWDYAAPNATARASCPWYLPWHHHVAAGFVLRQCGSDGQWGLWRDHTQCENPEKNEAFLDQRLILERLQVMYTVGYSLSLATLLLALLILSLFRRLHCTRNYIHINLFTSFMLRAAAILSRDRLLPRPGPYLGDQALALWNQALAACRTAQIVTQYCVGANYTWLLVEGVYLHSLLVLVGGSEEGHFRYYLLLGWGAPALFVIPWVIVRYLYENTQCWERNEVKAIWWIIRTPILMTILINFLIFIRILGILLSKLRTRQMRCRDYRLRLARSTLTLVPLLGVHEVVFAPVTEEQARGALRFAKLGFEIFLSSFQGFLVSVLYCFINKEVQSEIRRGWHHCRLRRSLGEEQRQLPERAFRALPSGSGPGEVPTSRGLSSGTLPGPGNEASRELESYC
Assay: Functional cAMP activity in the presence of 1% HSA
Format: cell-based
Conditions: read-out: cAMP Rel EC50, hGIPR
pEC50: −log10 of the molar value. Starred links: 1 amine or outer side, 2 acyl side, 3 side chain; linkers in the order of their positions; H or OH if unused. Non-standard residues stand in square brackets, D forms with d. Groups on a side chain read outwards from the residue. No end group written: not given here. *: point of attachment. C20 diacid = O=C(O)CCCCCCCCCCCCCCCCCCC(=O)*; C18 diacid = O=C(O)CCCCCCCCCCCCCCCCC(=O)*; αMePhe(2-F) = C[C@](N)(Cc1ccccc1F)C(=O)O; γGlu = O=C(O)[C@H](CCC(=O)[*:2])N[*:1]; αMe4Pal = C[C@](N)(Cc1ccncc1)C(=O)O; αMeY = C[C@](N)(Cc1ccc(O)cc1)C(=O)O; 4Pal = N[C@@H](Cc1ccncc1)C(=O)O; αMeL = CC(C)C[C@](C)(N)C(=O)O; αMeS = C[C@](N)(CO)C(=O)O; Orn = NCCC[C@H](N)C(=O)O; AEEA = NCCOCCOCC(=O)O; Aib = CC(C)(N)C(=O)O
Classify as follows. Reported pEC50 greater than or equal to 8: Criterion met. Reported pEC50 below: Criterion not met.

| substance | classification |
| --- | --- |
| H-Y[Aib]QGT[αMePhe(2-F)]TSDYSILLDKQAAK([AEEA-AEEA-γGlu-C20 diacid])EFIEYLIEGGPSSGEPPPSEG-NH2 [Example 348] | Criterion not met |
| H-Y[Aib]QGTFTSD[4Pal]S[Orn][αMeL]LD[Orn]K([Glu-γGlu-C18 diacid])AQ[Aib]AFIE[αMeY]LLEGGPSSGAPPPSGSEE-NH2 [Example 1066] | Criterion not met |
| H-Y[Aib]QGT[αMePhe(2-F)]TSD[4Pal]SI[αMeL]LD[Orn]K([AEEA-γGlu-C18 diacid])AQ[αMe4Pal]EFI[dE][αMeY]LLEGGPSSGAPPPSGS-NH2 [Example 641] | Criterion met |
| H-Y[Aib]QGT[αMePhe(2-F)]TSD[4Pal][αMeS]I[αMeL]LD[Orn]QAQ[αMe4Pal]EFI[dE][αMeY]LVEGGPSSGAPPPSGS-NH2 [Example 1231] | Criterion met |
| H-Y[Aib]QGTFTSDYSI[αMeL]LDKQAAK([AEEA-AEEA-γGlu-C20 diacid])QFVNWLLA[Aib]GPSSGEPPPSEG-NH2 [Example 325] | Criterion not met |
| H-Y[Aib]QGT[αMePhe(2-F)]TSD[4Pal][αMeS]I[αMeL]LD[Orn]K([AEEA-γGlu-C18 diacid])AQ[αMe4Pal]EFI[dE][αMeY]LIEGGPSSGEPPPSGGGE-NH2 [Example 742] | Criterion met |
| H-Y[Aib]QGTFTSD[4Pal]SQ[αMeL]LDKK([AEEA-γGlu-C18 diacid])AQ[αMe4Pal]AFIEYLIE[Aib]GPSSGAPPPSGSGE-NH2 [Example 888] | Criterion not met |
| H-Y[Aib]QGTFTSDYSK[αMeL]LDKK([AEEA-γGlu-C20 diacid])AQQAFIEYLLAGGPSSGEPPPSGE-NH2 [Example 344] | Criterion not met |
| H-Y[Aib]QGT[αMePhe(2-F)]TSD[4Pal]SI[αMeL]LD[Orn]K([γGlu-γGlu-C18 diacid])AQ[αMe4Pal][Orn]FI[dE][αMeY]LIEGGPSSGEPPPEGTE-NH2 [Example 687] | Criterion met |
| H-Y[Aib]QGTFTSD[4Pal]SQ[αMeL]LD[Orn]K([AEEA-γGlu-C18 diacid])AQ[αMe4Pal]AFIE[αMeY]LIE[Aib]GPSSGAPPPSGSEE-NH2 [Example 1108] | Criterion met |
| H-Y[Aib]QGT[αMePhe(2-F)]TSDYSI[αMeL]LD[Orn]K([AEEA-γGlu-C18 diacid])AQ[Aib]AFI[dE]YLLEGGPSSGAPPPSEG-NH2 [Example 404] | Criterion met |
| H-Y[Aib]QGTFTSDFS[Orn][αMeL]LDKK([AEEA-γGlu-C18 diacid])AQ[Aib]AFIEWLLEGGTSSGAPPPSGS-NH2 [Example 176] | Criterion not met |
| H-Y[Aib]QGTFTSDFSK[αMeL]LDKK([AEEA-γGlu-C20 diacid])AQ[Aib]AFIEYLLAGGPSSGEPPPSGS-NH2 [Example 8] | Criterion not met |
| Y[Aib]QGTFTSD[4Pal]SQ[αMeL]LD[Orn]K([dE-γGlu-C18 diacid])AQ[αMe4Pal]QFIE[αMeY]LIA[Aib]GPSSGEPPPSGSEE-NH2 [Example 1106] | Criterion met |
| H-Y[Aib]QGT[αMePhe(2-F)]TSD[4Pal][αMeS]I[αMeL]LD[Orn]K([γGlu-γGlu-C18 diacid])AQ[αMe4Pal]EFI[dE][αMeY]LIEGGPSSGEPPPSGE-NH2 [Example 1151] | Criterion met |
| H-Y[Aib]QGT[αMePhe(2-F)]TSDYSKILDKIAQK([AEEA-γGlu-C20 diacid])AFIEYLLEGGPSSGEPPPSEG-NH2 [Example 311] | Criterion not met |
